# Reported Conditions: in propylene glycol, 333.15 K
Measured Quantity: solubility (mole fraction)
A bare number is all that is needed in reply.

For the compound "COc1ccc([C@@H]2CC(=O)c3c(O)cc(O[C@@H]4O[C@H](CO[C@@H]5O[C@@H](C)[C@H](O)[C@@H](O)[C@H]5O)[C@@H](O)[C@H](O)[C@H]4O)cc3O2)cc1O" , report solubility (mole fraction).
0.00158

----------
# Reported Conditions: in water, 298.15 K
Measured Quantity: solubility (mole fraction)
A bare number is all that is needed in reply.

For the compound "COc1ccc([C@@H]2CC(=O)c3c(O)cc(O[C@@H]4O[C@H](CO[C@@H]5O[C@@H](C)[C@H](O)[C@@H](O)[C@H]5O)[C@@H](O)[C@H](O)[C@H]4O)cc3O2)cc1O" , report solubility (mole fraction).
1.47e-07

----------
# Reported Conditions: in PEG-400, 323.15 K
Measured Quantity: solubility (mole fraction)
A bare number is all that is needed in reply.

For the compound "COc1ccc([C@@H]2CC(=O)c3c(O)cc(O[C@@H]4O[C@H](CO[C@@H]5O[C@@H](C)[C@H](O)[C@@H](O)[C@H]5O)[C@@H](O)[C@H](O)[C@H]4O)cc3O2)cc1O" , report solubility (mole fraction).
0.0124

----------
# Reported Conditions: in propylene glycol, 323.15 K
Measured Quantity: solubility (mole fraction)
A bare number is all that is needed in reply.

For the molecule "COc1ccc([C@@H]2CC(=O)c3c(O)cc(O[C@@H]4O[C@H](CO[C@@H]5O[C@@H](C)[C@H](O)[C@@H](O)[C@H]5O)[C@@H](O)[C@H](O)[C@H]4O)cc3O2)cc1O" , report solubility (mole fraction).
0.00114

----------
# Reported Conditions: in n-butanol, 323.15 K
Measured Quantity: solubility (mole fraction)
A bare number is all that is needed in reply.

For the molecule "COc1ccc([C@@H]2CC(=O)c3c(O)cc(O[C@@H]4O[C@H](CO[C@@H]5O[C@@H](C)[C@H](O)[C@@H](O)[C@H]5O)[C@@H](O)[C@H](O)[C@H]4O)cc3O2)cc1O" , report solubility (mole fraction).
0.000582

----------
# Reported Conditions: in water, 303.15 K
Measured Quantity: solubility (mole fraction)
A bare number is all that is needed in reply.

For the compound "COc1ccc([C@@H]2CC(=O)c3c(O)cc(O[C@@H]4O[C@H](CO[C@@H]5O[C@@H](C)[C@H](O)[C@@H](O)[C@H]5O)[C@@H](O)[C@H](O)[C@H]4O)cc3O2)cc1O" , report solubility (mole fraction).
1.52e-07

----------
# Reported Conditions: in n-butanol, 333.15 K
Measured Quantity: solubility (mole fraction)

For the molecule "COc1ccc([C@@H]2CC(=O)c3c(O)cc(O[C@@H]4O[C@H](CO[C@@H]5O[C@@H](C)[C@H](O)[C@@H](O)[C@H]5O)[C@@H](O)[C@H](O)[C@H]4O)cc3O2)cc1O" , report solubility (mole fraction).
0.000715

----------
# Reported Conditions: in isopropanol, 303.15 K
Measured Quantity: solubility (mole fraction)
A bare number is all that is needed in reply.

For the molecule "COc1ccc([C@@H]2CC(=O)c3c(O)cc(O[C@@H]4O[C@H](CO[C@@H]5O[C@@H](C)[C@H](O)[C@@H](O)[C@H]5O)[C@@H](O)[C@H](O)[C@H]4O)cc3O2)cc1O" , report solubility (mole fraction).
1.87e-05

----------
# Reported Conditions: in isopropanol, 298.15 K
Measured Quantity: solubility (mole fraction)
A bare number is all that is needed in reply.

For the compound "COc1ccc([C@@H]2CC(=O)c3c(O)cc(O[C@@H]4O[C@H](CO[C@@H]5O[C@@H](C)[C@H](O)[C@@H](O)[C@H]5O)[C@@H](O)[C@H](O)[C@H]4O)cc3O2)cc1O" , report solubility (mole fraction).
1.53e-05

----------
# Reported Conditions: in isopropanol, 323.15 K
Measured Quantity: solubility (mole fraction)
A bare number is all that is needed in reply.

For the compound "COc1ccc([C@@H]2CC(=O)c3c(O)cc(O[C@@H]4O[C@H](CO[C@@H]5O[C@@H](C)[C@H](O)[C@@H](O)[C@H]5O)[C@@H](O)[C@H](O)[C@H]4O)cc3O2)cc1O" , report solubility (mole fraction).
3.82e-05

----------
# Reported Conditions: in ethanol, 298.15 K
Measured Quantity: solubility (mole fraction)
A bare number is all that is needed in reply.

For the molecule "COc1ccc([C@@H]2CC(=O)c3c(O)cc(O[C@@H]4O[C@H](CO[C@@H]5O[C@@H](C)[C@H](O)[C@@H](O)[C@H]5O)[C@@H](O)[C@H](O)[C@H]4O)cc3O2)cc1O" , report solubility (mole fraction).
3.45e-05

----------
# Reported Conditions: in water, 323.15 K
Measured Quantity: solubility (mole fraction)
A bare number is all that is needed in reply.

For the molecule "COc1ccc([C@@H]2CC(=O)c3c(O)cc(O[C@@H]4O[C@H](CO[C@@H]5O[C@@H](C)[C@H](O)[C@@H](O)[C@H]5O)[C@@H](O)[C@H](O)[C@H]4O)cc3O2)cc1O" , report solubility (mole fraction).
1.7e-07

----------
# Reported Conditions: in ethanol, 313.15 K
Measured Quantity: solubility (mole fraction)

For the compound "COc1ccc([C@@H]2CC(=O)c3c(O)cc(O[C@@H]4O[C@H](CO[C@@H]5O[C@@H](C)[C@H](O)[C@@H](O)[C@H]5O)[C@@H](O)[C@H](O)[C@H]4O)cc3O2)cc1O" , report solubility (mole fraction).
5.27e-05

----------
# Reported Conditions: in n-butanol, 313.15 K
Measured Quantity: solubility (mole fraction)

For the compound "COc1ccc([C@@H]2CC(=O)c3c(O)cc(O[C@@H]4O[C@H](CO[C@@H]5O[C@@H](C)[C@H](O)[C@@H](O)[C@H]5O)[C@@H](O)[C@H](O)[C@H]4O)cc3O2)cc1O" , report solubility (mole fraction).
0.000461

----------
# Reported Conditions: in n-butanol, 298.15 K
Measured Quantity: solubility (mole fraction)
A bare number is all that is needed in reply.

For the molecule "COc1ccc([C@@H]2CC(=O)c3c(O)cc(O[C@@H]4O[C@H](CO[C@@H]5O[C@@H](C)[C@H](O)[C@@H](O)[C@H]5O)[C@@H](O)[C@H](O)[C@H]4O)cc3O2)cc1O" , report solubility (mole fraction).
0.000315
